System: SARS-CoV-2
assay: Antiviral activity against SARS-CoV-2 (USA-WA1/2020 strain) measured by imaging in HRCE cells at MOI 0.4 after 96 hrs (reported as hit score from 0-1 for on-disease vs off-disease activity: scores >0.6 considered hits)
Format: functional, Homo sapiens
In all, about 1,600 compounds were measured (“Hit score”: median about 0.13, highest 2% from about 0.46 on). This is one part of a sample in which the highest values are shown more often than they occur.
endpoint-name: Hit score
Keep it simple and answer with nothing but the number.

Query :: Read off the recorded Hit score for CC(C)NCC(O)COc1cccc2[nH]c3ccccc3c12 (stereo not drawn) [CARAZOLOL]
Result :: 0.4815

Query :: Read off the recorded Hit score for N#C[C@@]1(c2ccc3c(N)ncnn23)O[C@H](CO)[C@@H](O)[C@H]1O [GS-441524]
Result :: 0.865

Query :: Read off the recorded Hit score for CC(C)OC(=O)[C@H](C)N[P@@](=O)(OC[C@H]1O[C@@H](n2ccc(=O)[nH]c2=O)[C@](C)(F)[C@@H]1O)Oc1ccccc1
Result :: 0.2594

Query :: Read off the recorded Hit score for COC(=O)C[C@](O)(CCC(C)(C)O)C(=O)O[C@@H]1C(OC)=C[C@]23CCCN2CCc2cc4c(cc2[C@H]13)OCO4 [HARRINGTONINE]
Result :: 0.07403

Query :: Read off the recorded Hit score for CNC(=O)c1cc(Oc2ccc(NC(=O)Nc3ccc(Cl)c(C(F)(F)F)c3)cc2)ccn1 [SORAFENIB]
Result :: 0.2484

Query :: Read off the recorded Hit score for COc1ccc(C(=O)N2CCN(c3ccc4c(c3)CCC(=O)N4)CC2)cc1OC [VESNARINONE]
Result :: 0.09463

Query :: Read off the recorded Hit score for Nc1ncnc2c1ncn2[C@@H]1O[C@H](CO)[C@@H](O)[C@@H]1O [VIDARABINE]
Result :: -0.02251

Query :: Read off the recorded Hit score for COc1ccccc1OCC(O)CO (stereo not drawn) [GUAIFENESIN]
Result :: 0.2008

Origin of measurements: ChEMBL document CHEMBL4303122
